Tested on: OVCAR-5
Experiment: NCI tumour cell line growth inhibition, 48 h
The source made the active and inactive calls. Rule as the data show it: active = GI50 up to about 1.1 µM and inactive = higher.
ENDPOINT: GI50

- CCOC(=O)CNc1c(OCc2ccccc2)c(=O)c1=O: > 100 µM (inactive)
- COC(=O)c1c[nH]cc1CCc1c[nH]cc1C(=O)OC: > 100 µM (inactive)
- COc1cc(/C=C2\N=C(c3ccccc3)N(c3ccc(C(=O)c4ccccc4)cc3N3C(=O)/C(=C/c4ccc(O)c(OC)c4)N=C3c3ccccc3)C2=O)ccc1O: 32.4 µM (inactive)

What does the record list as GI50 for Cc1ccc(N2C(=O)/C(=C/c3ccc(N(CCC#N)CCC#N)cc3C)N=C2c2cc([N+](=O)[O-])ccc2Cl)cc1 ? > 100 µM (inactive)

What does the record list as GI50 for C/C(=N\Nc1nc2ccccc2n1C)c1ccc2ccccc2n1 ? 1.53 µM (inactive)

What does the record list as GI50 for C[C@H]1[C@H](C)CC[C@]2(C(=O)OC3OC(CO)C(O)C(O)C3O)CC[C@]3(C)C(=CC[C@@H]4[C@@]5(C)C[C@@H](O)[C@@H]6OC(=O)c7cc(O)c(O)c(O)c7-c7c(cc(O)c(O)c7O)C(=O)OC[C@@]6(CO)[C@@H]5CC[C@]43C)[C@H]12 (stereo not given in full) ? > 75.3 µM (inactive)

What does the record list as GI50 for O=C1NC(=S)NC(=O)C1=C/C=C/c1ccc([N+](=O)[O-])cc1 ? 18.3 µM (inactive)

What does the record list as GI50 for NS(=O)(=O)c1cc(S(N)(=O)=O)c(NC(=O)Nc2ccc(Cl)c(Cl)c2)c(Cl)c1Cl ? > 100 µM (inactive)

Where do the numbers come from? From ChEMBL document CHEMBL1201862.
